Hello, the source for this data is patent US20170267764A1, in case you need it.

- experimental_target: T1, human MICA allele MICA*001 (human, UniProt Q29983 24-297)
- T1 construct: Expressed on transfected C1R cells; also called MICA*01; C1R-MICA*001
- T1 sequence: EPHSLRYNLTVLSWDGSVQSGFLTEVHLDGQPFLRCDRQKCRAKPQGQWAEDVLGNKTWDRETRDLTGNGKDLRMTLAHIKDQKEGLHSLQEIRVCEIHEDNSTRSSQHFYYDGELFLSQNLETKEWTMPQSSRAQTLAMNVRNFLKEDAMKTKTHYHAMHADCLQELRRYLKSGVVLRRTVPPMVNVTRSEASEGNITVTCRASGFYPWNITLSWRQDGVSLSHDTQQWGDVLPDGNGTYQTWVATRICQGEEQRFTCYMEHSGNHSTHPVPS
- procedure_summary: flow cytometry, C1R-MICA*001 transfectant cells
- Protocol: The binding of the antibodies in Table 2 of Example 1 were tested for binding to MICA-expressing C1R transfectant cells (ATCC reference CRL-1993™) transfected with RSV.5neo vectors (GenBank (NCBI) under Accession number M83237), as described in Salih et al. (2003) Blood 102(4): […], referred to as C1R-MICA*001, C1R-MICA*004, C1R-MICA*007 and C1R-MICA*008. Binding was analyzed by flow cytometry. […]
property_measured: EC50 (µg/mL)
The answer is to be given in µg/mL; state only the numeric part.

The cases that follow already have their EC50 on record.
binder: mAb7 (antibody, V domains shown, Produced in CHO cells as human IgG1 with huCk constant domain) VH: QVQLQESGPGLVKPSETLSLTCTVSGYSITSDYAWNWIRQPPGKGLEWMGFVSYSGTTKYNPSLKSRVTISRDTSENQFSLKLSSVTAADTAVYYCARGYGFDYWGQGTTVTVSS VL: EIVLTQSPATLSLSPGERATLSCSATSSISSIYFHWYQQKPGQAPRLLIYRTSNLASGIPARFSGSGSGTDYTLTISSLEPEDFAVYYCQQGTTIPFTFGQGTKLEIK
EC50 (µg/mL): 0.288
--
binder: mAb2 (antibody, V domains shown, Produced in CHO cells as human IgG1 with huCk constant domain) VH: QVQLQESGPGLVKPSETLSLTCTVSGYSITSDYAWNWIRQPPGKGLEWIGFVSYSGTTKYNPSLKSRVTISRDTSKNQFSLKLSSVTAADTAVYYCARGYGFDYWGQGTTVTVSS VL: EIVLTQSPATLSLSPGERATLSCSATSSISSIYFHWYQQKPGQAPRLLIYRTSNLASGIPARFSGSGSGTSYTLTISSLEPEDFAVYYCQQGTTIPFTFGQGTKLEIK
EC50 (µg/mL): 0.151
--
binder: mAb3 (antibody, V domains shown, Produced in CHO cells as human IgG1 with huCk constant domain) VH: QVQLQESGPGLVKPSETLSLTCTVSGYSITSDYAWNWIRQPPGKGLEWIGFVSYSGTTKYNPSLKSRVTISRDTSKNQFSLKLSSVTAADTAVYYCARGYGFDYWGQGTTVTVSS VL: EIVLTQSPATLSLSPGERATLSCSATSSISSIYFHWYQQKPGQAPRLLIYRTSNLASGIPARFSGSGSGTDYTLTISSLEPEDVAVYYCQQGTTIPFTFGQGTKLEIK
EC50 (µg/mL): 0.265
--
binder: mAb1 (antibody, V domains shown, Produced in CHO cells as human IgG1 with huCk constant domain; also called anti-MICA mAb1; anti-MICA antibody mAb1) VH: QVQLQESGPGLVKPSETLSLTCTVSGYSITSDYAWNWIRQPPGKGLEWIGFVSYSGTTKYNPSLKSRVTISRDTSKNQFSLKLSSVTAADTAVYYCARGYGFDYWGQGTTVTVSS VL: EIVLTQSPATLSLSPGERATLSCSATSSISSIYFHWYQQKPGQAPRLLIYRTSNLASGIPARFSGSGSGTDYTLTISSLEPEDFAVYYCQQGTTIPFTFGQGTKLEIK
EC50 (µg/mL): 0.184
--
binder: mAb11 (antibody, V domains shown, Produced in CHO cells as human IgG1 with huCk constant domain) VH: QVQLQESGPGLVKPSETLSLTCTVSGYSITSDYAWNWIRQPPGKGLEWMGFVSYSGTTKYNPSLKSRITISRDTSENQFSLKLSSVTAADTAVYYCARGYGFDYWGQGTTVTVSS VL: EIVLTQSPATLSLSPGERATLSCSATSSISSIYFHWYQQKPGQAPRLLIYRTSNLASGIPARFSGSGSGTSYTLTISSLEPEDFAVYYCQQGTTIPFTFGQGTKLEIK
EC50 (µg/mL): 0.32

Report EC50 for mAb9 (antibody, V domains shown, Produced in CHO cells as human IgG1 with huCk constant domain) VH: QVQLQESGPGLVKPSETLSLTCTVSGYSITSDYAWNWIRQPPGKGLEWMGFVSYSGTTKYNPSLKSRVTISRDTSENQFSLKLSSVTAADTAVYYCARGYGFDYWGQGTTVTVSS VL: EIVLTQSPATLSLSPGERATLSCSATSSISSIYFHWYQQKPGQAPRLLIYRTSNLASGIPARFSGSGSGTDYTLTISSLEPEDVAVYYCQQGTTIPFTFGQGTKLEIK please.
0.318

Try mAb6 (antibody, V domains shown, Produced in CHO cells as human IgG1 with huCk constant domain) VH: QVQLQESGPGLVKPSETLSLTCTVSGYSITSDYAWNWIRQPPGKGLEWMGFVSYSGTTKYNPSLKSRVTISRDTSKNQFSLKLSSVTAADTAVYYCARGYGFDYWGQGTTVTVSS VL: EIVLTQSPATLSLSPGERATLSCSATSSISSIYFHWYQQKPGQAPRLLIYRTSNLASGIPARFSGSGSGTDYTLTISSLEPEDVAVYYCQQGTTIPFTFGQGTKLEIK next.
0.407

Try mAb8 (antibody, V domains shown, Produced in CHO cells as human IgG1 with huCk constant domain) VH: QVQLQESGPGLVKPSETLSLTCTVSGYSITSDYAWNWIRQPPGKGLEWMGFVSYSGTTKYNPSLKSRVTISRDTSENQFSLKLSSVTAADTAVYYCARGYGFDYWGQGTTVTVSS VL: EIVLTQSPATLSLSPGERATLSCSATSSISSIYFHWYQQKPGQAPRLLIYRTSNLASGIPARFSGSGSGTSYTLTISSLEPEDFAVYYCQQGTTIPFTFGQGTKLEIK next.
0.191
